Attribution: the supplement of paper PMC7021759

Provide the reported area under dose-response curve of each item.
Tested on: SK-N-MM (SKNMM-MYCN, doxycycline-inducible MYCN)
Test: area under dose-response curve (CellTiter-Glo viability normalised to plate controls) (AUC (arbitrary units)); higher = more loss of viability; extreme values may be limits of the assay
Settings: MYCN induction (doxycycline): no doxycycline (MYCN not induced); time after drugging: 8 days
Returns: the value as a bare number; no unit string appended.

Q) What value of area under dose-response curve has been recorded for this entry: COc1cccc2c1C(=O)c1c(O)c3c(c(O)c1C2=O)C[C@@](O)(C(=O)CO)C[C@@H]3O[C@H]1C[C@H](N)[C@H](O)[C@H](C)O1
A) 224

Q) Let us now turn to CC[C@@H]1C(=O)N(C)c2cnc(Nc3ccc(C(=O)NC4CCN(C)CC4)cc3OC)nc2N1C1CCCC1
A) 92.1

Q) Let us now turn to CCOC(=O)CCNc1cc(N2CCc3ccccc3CC2)nc(-c2ccccn2)n1
A) 150

Q) Let us now turn to CCc1ccc(CCOc2ccc(CC3SC(=O)NC3=O)cc2)nc1 (stereo not drawn)
A) 0

Q) Let us now turn to CCOc1ccn(-c2ccc(F)cc2)c(=O)c1C(=O)Nc1ccc(Oc2ccnc(N)c2Cl)c(F)c1
A) 74.3

Q) Let us now turn to CNC(=O)c1ccccc1Sc1ccc2c(/C=C/c3ccccn3)n[nH]c2c1
A) 69.7

Q) Let us now turn to O=C(NC1CCNCC1)c1n[nH]cc1NC(=O)c1c(Cl)cccc1Cl
A) 65.7

Q) Let us now turn to CN(C)CCCNc1c2ccccc2nc2c1[nH]c1ccccc12
A) 225

====

Tested on: SK-N-MM (SKNMM-MYCN, doxycycline-inducible MYCN)
Assay: area under dose-response curve (CellTiter-Glo viability normalised to plate controls) (AUC (arbitrary units)); higher = more loss of viability; extreme values may be limits of the assay
Details: MYCN induction (doxycycline): no doxycycline (MYCN not induced); time after drugging: 8 days
Classification field: enter true (1) for area under dose-response curve values not below 60, false (0) for values below it.

Q) Please tell me: is the molecule COc1cc2ncnc(Nc3ccc(F)c(Cl)c3)c2cc1OCCCN1CCOCC1 at or over 60 in terms of area under dose-response curve?
A) true (1)

Q) Let us now turn to Cn1cnc2c(F)c(Nc3ccc(Br)cc3F)c(C(=O)NOCCO)cc21
A) false (0)

Q) Let us now turn to O=c1[nH]cc(F)c(=O)[nH]1
A) false (0)

Q) Let us now turn to CN(C)C(=O)c1cc2cnc(Nc3ccc(N4CCNCC4)cn3)nc2n1C1CCCC1
A) false (0)

Q) Let us now turn to Cc1ncc(CNC(=O)N(CCCl)N=O)c(N)n1
A) false (0)

Q) Let us now turn to CO[C@@]12[C@H](COC(N)=O)C3=C(C(=O)C(C)=C(N)C3=O)N1C[C@@H]1N[C@@H]12
A) true (1)

Q) Let us now turn to O=c1[nH]c(=O)n([C@H]2C[C@H](O)[C@@H](CO)O2)cc1F
A) true (1)

Q) Let us now turn to C/C=C1\NC(=O)[C@H]2CSSCC/C=C/[C@H](CC(=O)N[C@H](C(C)C)C(=O)N2)OC(=O)[C@H](C(C)C)NC1=O
A) true (1)
